- System: HT-22
- assay_details: In vitro safety index as ratio of MTC/PC50 was determined for HT-22 hippocampal cell cultures of mouse by MTT reduction assay
- Type: functional
Safety index reference

{"columns": ["compound", "value_modifier", "Safety index"],
 "data": [
  ["CC1(C)Nc2c(ccc(C(=O)c3ccccc3)c2O)OC1NCCc1ccccc1 (stereo not given)", "=", 5],
  ["CC(C)CNC1Oc2ccc(C(=O)c3ccccc3)c(O)c2NC1c1ccccc1 (stereo not given)", "<", 1],
  ["CN(CC1OCCO1)C1Oc2ccc(C(=O)c3ccccc3)c(O)c2NC1c1ccccc1 (stereo not given)", "=", 200],
  ["CC(C)(C)C1COc2c(NCCc3ccccc3)ccc(C(=O)c3ccccc3)c2N1 (stereo not given)", ">", 100],
  ["CN(CC1OCCO1)C1Oc2ccc(C(=O)c3ccccc3)c(O)c2NC12CCCCC2 (stereo not given)", "=", 2],
  ["CC1(C)Nc2c(ccc(C(=O)c3ccccc3)c2O)OC1NC1CCCCC1 (stereo not given)", "=", 4.2],
  ["O=C(c1ccccc1)c1ccc2c(c1O)NC1(CCCCC1)C(O)O2 (stereo not given)", "=", 6.2],
  ["CC1(C)Nc2c(ccc(C(=O)c3ccccc3)c2O)OC1N1CCCCC1 (stereo not given)", "=", 3.1],
  ["O=C(c1ccccc1)c1ccc2c(c1O)NC1(CCCCC1)C(N1CCOCC1)O2 (stereo not given)", "=", 1.8],
  ["CC(C)CNC1Oc2ccc(C(=O)c3ccccc3)c(O)c2NC1(C)C (stereo not given)", "=", 24.4]
]}
